Data origin: patent US20210196796A1

TARGET_ENTITY: T1, orthogonal hCD122 receptor (hoRb), hCD122 with H133D and Y134F (human, UniProt P14784 27-550); also: reference of the scale not given here
T1 sequence: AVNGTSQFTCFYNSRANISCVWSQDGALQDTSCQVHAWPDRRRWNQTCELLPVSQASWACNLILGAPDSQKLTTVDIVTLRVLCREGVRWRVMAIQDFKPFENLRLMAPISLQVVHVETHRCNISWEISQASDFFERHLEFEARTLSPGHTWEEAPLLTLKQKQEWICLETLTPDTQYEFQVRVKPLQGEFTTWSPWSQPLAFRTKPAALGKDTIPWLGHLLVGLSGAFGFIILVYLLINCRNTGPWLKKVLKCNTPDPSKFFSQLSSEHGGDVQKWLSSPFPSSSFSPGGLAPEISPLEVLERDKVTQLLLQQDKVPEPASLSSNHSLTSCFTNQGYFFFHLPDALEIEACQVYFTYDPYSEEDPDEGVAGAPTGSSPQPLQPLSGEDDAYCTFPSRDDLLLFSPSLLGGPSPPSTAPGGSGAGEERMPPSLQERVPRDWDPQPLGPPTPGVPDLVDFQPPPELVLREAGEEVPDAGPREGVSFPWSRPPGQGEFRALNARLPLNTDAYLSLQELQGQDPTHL
EXPERIMENT: cell-based or functional assay
QUANTITY_NAME: Relative Proliferation Fold Change NKL 1:2 (fold)

Past entries and their recorded results:
• N88Q, SQVLKA (ligand) APTSSSTKKTQLQLSQLLVLLKAILNGINNYKNPKLTRMLTFKFYMPKKATELKHLQCLEEELKPLEEVLNLAQSKNFHLRPRDLISQINVIVLELKGSETTFMCEYADETATIVEFLNRWITFCQSIISTLT = 0.43
• T3E, SQVLKA (ligand) APESSSTKKTQLQLSQLLVLLKAILNGINNYKNPKLTRMLTFKFYMPKKATELKHLQCLEEELKPLEEVLNLAQSKNFHLRPRDLISNINVIVLELKGSETTFMCEYADETATIVEFLNRWITFCQSIISTLT = 3.97

(a) R38G, SQVLKA (ligand) APTSSSTKKTQLQLSQLLVLLKAILNGINNYKNPKLTGMLTFKFYMPKKATELKHLQCLEEELKPLEEVLNLAQSKNFHLRPRDLISNINVIVLELKGSETTFMCEYADETATIVEFLNRWITFCQSIISTLT
(b) SQVLWA (ligand) APTSSSTKKTQLQLSQLLVLLWAILNGINNYKNPKLTRMLTFKFYMPKKATELKHLQCLEEELKPLEEVLNLAQSKNFHLRPRDLISNINVIVLELKGSETTFMCEYADETATIVEFLNRWITFCQSIISTLT
Inquiry: Which value of Relative Proliferation Fold Change NKL 1:2 is greater, the one for a or the one for b ? Reply briefly: the label of your chosen item.
Reply text: a
